Value source: patent US20050101618A1

Test: Whole blood pharmacokinetics of agent 182 in BT-474 tumor-bearing mice (LC-MS/MS)
Format: in vivo
Conditions: female, athymic, mouse, whole blood, po, 50 mg/kg
REPORTED_ENDPOINT: Cmax (ng/mL)

> print(dat)
                                   molecule  unit.annotation  numeric.value
1  COCC(=O)NC/C=C/c1ccc2ncnc(Nc3ccc(Oc4ccc(C)nc4)c(C)c3)c2c1 [Agent 182]            ng/mL           2440
